# System: P-Akt (S473)
# Assay info: Cell based AlphaLISA assay, inhibition of P-Akt (S473) (mTORC2 substrate phosphorylation) in MDA-MB-468 cells
# Condition context: Homo sapiens, MDA-MB-468, 4 h, AlphaLISA, two to four hours at 37° C., read-out: pIC50 for Inhibition of mTORC1 and mTORC2 Substrate Phosphorylation, p-AKT 1/2/3 -(S473) (converted)

[
  {
    "Compound structure string": "CO[C@H]1C[C@@H]2CC[C@@H](C)[C@@](O)(O2)C(=O)C(=O)N2CCCC[C@H]2C(=O)O[C@H]([C@H](C)C[C@@H]2CC[C@H](n3nncc3-c3cccc(-c4cnc(N5CCN(C(=O)CCc6cn(CCOCCOCCC(=O)NCCCCn7nc(-c8ccc9oc(N)nc9c8)c8c(N)ncnc87)nn6)CC5)nc4)c3)[C@H](OC)C2)CC(=O)[C@H](C)/C=C(\\C)[C@@H](O)[C@@H](OC)C(=O)[C@H](C)C[C@H](C)/C=C/C=C/C=C/1C",
    "IC50": "31.6 to 1000 nM"
  },
  {
    "Compound structure string": "CO[C@H]1C[C@@H]2CC[C@@H](C)[C@@](O)(O2)C(=O)C(=O)N2CCCC[C@H]2C(=O)O[C@H]([C@H](C)C[C@@H]2CC[C@H](n3cc(-c4cccc(C(=O)NCCOCCOCCOCCC(=O)NCCOCCOCCC(=O)NCCCCn5nc(-c6ccc7oc(N)nc7c6)c6c(N)ncnc65)c4)nn3)[C@H](OC)C2)CC(=O)[C@H](C)/C=C(\\C)[C@@H](O)[C@@H](OC)C(=O)[C@H](C)C[C@H](C)/C=C/C=C/C=C/1C",
    "IC50": "31.6 to 1000 nM"
  },
  {
    "Compound structure string": "CO[C@H]1C[C@@H]2CC[C@@H](C)[C@@](O)(O2)C(=O)C(=O)N2CCCC[C@H]2C(=O)O[C@H]([C@H](C)C[C@@H]2CC[C@@H](OCCCCc3cn(CCOCCOCCOCCOCCOCCOCCOCCOCCC(=O)NCCCCn4nc(-c5cccc(C(=O)NC6=NCCS6)c5)c5c(N)ncnc54)nn3)[C@H](OC)C2)CC(=O)[C@H](C)/C=C(\\C)[C@@H](O)[C@@H](OC)C(=O)[C@H](C)C[C@H](C)/C=C/C=C/C=C/1C",
    "IC50": "31.6 to 1000 nM"
  }
]

meta.source: patent US20230093861A1
